Provenance of the data: patent US6399777B2

PROTOCOL_SUMMARY: Solubility of ziprasidone salts in water
TEST_CONTEXT: weight of ziprasidone calculated as the free base
Counter-ions that a name gives are not always drawn.
Some molecules, each annotated with its measured Solubility in water.

O=C1Cc2cc(CCN3CCN(c4nsc5ccccc45)CC3)c(Cl)cc2N1 [besylate, ziprasidone] | 80 μgA/ml

Returns the measured Solubility in water for the input molecule. Input: O=C1Cc2cc(CCN3CCN(c4nsc5ccccc45)CC3)c(Cl)cc2N1 [tartrate, Ziprasidone Tartrate]
180 μgA/ml

Also need O=C1Cc2cc(CCN3CCN(c4nsc5ccccc45)CC3)c(Cl)cc2N1 [mesylate, Ziprasidone Mesylate] , thanks.
1000 μgA/ml

Also need O=C1Cc2cc(CCN3CCN(c4nsc5ccccc45)CC3)c(Cl)cc2N1 [hydrochloride, ziprasidone] , thanks.
80 μgA/ml

Also need O=C1Cc2cc(CCN3CCN(c4nsc5ccccc45)CC3)c(Cl)cc2N1 [free base, ziprasidone, reference compound] , thanks.
0.3 μgA/ml
